src = patent US8969376B2

assayedTarget: Bovine PDE10A (bPDE10A) (Bos taurus)
Sequence (A0A3Q1MHJ4 1-1068): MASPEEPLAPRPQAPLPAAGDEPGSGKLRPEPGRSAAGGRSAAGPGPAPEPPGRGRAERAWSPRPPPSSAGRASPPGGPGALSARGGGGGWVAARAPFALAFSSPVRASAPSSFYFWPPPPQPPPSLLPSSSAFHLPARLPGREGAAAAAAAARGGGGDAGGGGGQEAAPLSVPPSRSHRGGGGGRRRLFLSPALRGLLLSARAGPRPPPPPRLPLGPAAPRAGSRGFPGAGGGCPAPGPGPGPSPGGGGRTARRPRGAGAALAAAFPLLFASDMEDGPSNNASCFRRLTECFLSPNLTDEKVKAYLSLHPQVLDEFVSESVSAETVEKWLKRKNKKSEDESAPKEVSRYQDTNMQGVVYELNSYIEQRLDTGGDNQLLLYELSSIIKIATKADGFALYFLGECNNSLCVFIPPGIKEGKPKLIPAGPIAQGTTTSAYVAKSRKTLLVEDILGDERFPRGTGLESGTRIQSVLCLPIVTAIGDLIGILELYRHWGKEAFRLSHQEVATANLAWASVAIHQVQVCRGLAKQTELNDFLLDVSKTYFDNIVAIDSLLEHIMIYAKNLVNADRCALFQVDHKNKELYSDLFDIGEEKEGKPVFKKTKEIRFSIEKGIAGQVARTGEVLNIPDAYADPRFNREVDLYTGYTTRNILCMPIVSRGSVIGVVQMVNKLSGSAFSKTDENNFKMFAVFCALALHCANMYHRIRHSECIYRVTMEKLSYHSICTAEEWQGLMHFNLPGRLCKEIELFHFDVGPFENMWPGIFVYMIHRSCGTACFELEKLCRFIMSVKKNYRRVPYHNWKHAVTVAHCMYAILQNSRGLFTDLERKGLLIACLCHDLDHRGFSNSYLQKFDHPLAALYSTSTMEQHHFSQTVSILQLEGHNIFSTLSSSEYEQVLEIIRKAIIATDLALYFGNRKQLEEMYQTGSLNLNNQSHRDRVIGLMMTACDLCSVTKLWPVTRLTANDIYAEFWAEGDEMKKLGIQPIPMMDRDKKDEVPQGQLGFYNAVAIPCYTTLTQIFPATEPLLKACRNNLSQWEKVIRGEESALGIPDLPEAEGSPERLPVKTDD
resultType: pIC50
API: returns pIC50 as number; meaning -log10 of concentration in mol/L.

Request: I am curious: what pIC50 value has been reported for COCCN(CCOC)c1cc(N2CCCC2)nc2cc(-c3nc4cc(C)ccc4nc3C)nn12 [Example 1.050] ?
Response: 10.72

* * *

A collection of molecules and their measured IC50
assayedTarget: Human PDE10A (hPDE10A) (Homo sapiens (Human))
Please respond with the number in nM and leave the unit unwritten.

{"columns": ["molecule", "unitsSymbol", "IC50"],
 "data": [
  ["Cc1cn2nccc2nc1-c1cc2nc(N3CCCC3)cc(NCC(C)(C)O)n2n1 [Example 1.184]", "nM", 2.5],
  ["CO[C@H]1CC[C@H](Nc2cc(N3CCCC3)nc3cc(-c4nc5c(nc4C)OCCC5)nn23)CC1 [Example 1.199]", "nM", 0.89]
]}

Request: I am curious: what IC50 value has been reported for Cc1nc2ccc(F)cc2nc1-c1cc2nc(N3CC[C@H](F)C3)cc(N[C@H]3CC[C@@](C)(O)CC3)n2n1 [Example 1.175] ?
Response: 0.12

Request: I am curious: what IC50 value has been reported for Cc1nc2ccncc2nc1-c1cc2nc(N3CCCC3)cc(NC3CCOCC3)n2n1 [Example 5.001] ?
Response: 0.15

* * *

assayedTarget: Human PDE10A (hPDE10A) (Homo sapiens (Human), UniProt Q9Y233)
Sequence (Q9Y233 267-1055): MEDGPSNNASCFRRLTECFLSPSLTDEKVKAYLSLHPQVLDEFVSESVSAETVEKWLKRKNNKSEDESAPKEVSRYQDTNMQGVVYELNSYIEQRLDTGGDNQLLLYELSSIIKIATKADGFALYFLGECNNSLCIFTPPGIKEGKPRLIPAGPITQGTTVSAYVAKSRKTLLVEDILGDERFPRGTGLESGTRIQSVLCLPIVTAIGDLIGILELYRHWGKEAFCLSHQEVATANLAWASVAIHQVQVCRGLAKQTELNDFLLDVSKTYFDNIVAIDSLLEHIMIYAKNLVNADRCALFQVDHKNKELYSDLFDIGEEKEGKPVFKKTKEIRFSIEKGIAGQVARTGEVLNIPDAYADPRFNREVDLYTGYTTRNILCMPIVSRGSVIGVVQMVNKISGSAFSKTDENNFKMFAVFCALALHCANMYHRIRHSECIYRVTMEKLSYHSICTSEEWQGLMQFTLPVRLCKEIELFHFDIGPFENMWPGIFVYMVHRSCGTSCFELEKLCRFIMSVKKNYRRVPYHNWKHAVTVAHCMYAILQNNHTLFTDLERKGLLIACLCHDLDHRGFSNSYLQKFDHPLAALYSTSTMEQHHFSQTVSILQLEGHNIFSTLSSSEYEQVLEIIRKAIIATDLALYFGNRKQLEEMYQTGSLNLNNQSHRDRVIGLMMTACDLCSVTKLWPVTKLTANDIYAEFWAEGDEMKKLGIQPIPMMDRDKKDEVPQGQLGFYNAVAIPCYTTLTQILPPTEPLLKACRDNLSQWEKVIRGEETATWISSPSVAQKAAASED
resultType: log10(IC50) (log10 of the value in pM)
Annotation: log10 of IC50, pM basis.

{"columns": ["compoundStructure", "assayedTarget", "log10(IC50)"],
 "data": [
  ["Cc1nc2c(nc1-c1cc3nc(N4CCCC4)cc(NC4CCOCC4)n3n1)CCCO2", "Human PDE10A (hPDE10A) (Homo sapiens (Human), UniProt Q9Y233)", 3.40],
  ["Cc1nc2c(nc1-c1cc3nc(N4CCCC4)cc(N[C@H]4CC[C@](C)(O)CC4)n3n1)CCCO2", "Human PDE10A (hPDE10A) (Homo sapiens (Human), UniProt Q9Y233)", 2.43],
  ["Cc1nc2c(nc1-c1cc3nc(N4CCCC4)cc(NCC(C)(C)O)n3n1)CCCO2", "Human PDE10A (hPDE10A) (Homo sapiens (Human), UniProt Q9Y233)", 2.91],
  ["Cc1nc(C)c(C2CC2)nc1-c1cc2nc(N3CCCC3)cc(NCC(C)(C)O)n2n1", "Human PDE10A (hPDE10A) (Homo sapiens (Human), UniProt Q9Y233)", 2.26],
  ["Cc1nc(C)c(-c2cc3nc(N4CCCC4)cc(NCC(C)(C)O)n3n2)nc1CC(C)C", "Human PDE10A (hPDE10A) (Homo sapiens (Human), UniProt Q9Y233)", 2.78]
]}

Request: Under Human PDE10A (hPDE10A) (Homo sapiens (Human), UniProt Q9Y233): log10(IC50) value of "CCCc1cnc(C)c(-c2cc3nc(N4CCCC4)cc(N(C)C4CCOCC4)n3n2)n1" ?
Response: 2.81

Request: Under Human PDE10A (hPDE10A) (Homo sapiens (Human), UniProt Q9Y233): log10(IC50) value of "Cc1nc2cnccc2nc1-c1cc2nc(N3CCCC3)cc(NC3CCOCC3)n2n1" ?
Response: 2.45

Request: Under Human PDE10A (hPDE10A) (Homo sapiens (Human), UniProt Q9Y233): log10(IC50) value of "Cc1nc(C)c(C2CC2)nc1-c1cc2nc(N3CCCC3)cc(NC3CCOCC3)n2n1" ?
Response: 2.84
